Assayed target: Kras and SOS1 (biotin-tagged human Kras loaded with GDP, His-tagged human SOS1) (Homo sapiens, UniProt P01116, G12D)
Construct: made in house; host or cells: E. coli (stated for Kras only)
Sequence (P01116 1-188 isoform P01116-2 G12D): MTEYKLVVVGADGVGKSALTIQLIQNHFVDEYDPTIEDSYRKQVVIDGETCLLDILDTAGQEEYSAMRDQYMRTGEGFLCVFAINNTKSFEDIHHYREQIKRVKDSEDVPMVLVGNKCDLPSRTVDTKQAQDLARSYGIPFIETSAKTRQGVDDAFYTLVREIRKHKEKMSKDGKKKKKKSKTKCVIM
Experiment summary: Protein-protein interaction inhibition between Kras and SOS1 (KrasGl2D-SOS PPI) using AlphaScreen
Format: binding
Protocol conditions: AlphaScreen; biotin-tagged human Kras loaded with GDP, His-tagged human SOS1; read-out: KRAS G12D-SOS PPI IC50
pIC50: −log10 of the molar value. Starred links: 1 amine or outer side, 2 acyl side, 3 side chain; linkers in the order of their positions; H or OH if unused. Positions of bridges follow the written chain, without caps; N, C: chain ends. Non-standard residues stand in square brackets, D forms with d. Residues, ends and D or L forms follow the SMILES beside them. *: point of attachment. hPhe(3-Cl-4-CF3) = N[C@@H](CCc1ccc(C(F)(F)F)c(Cl)c1)C(=O)O; NMePhe(4-CF3) = CN[C@@H](Cc1ccc(C(F)(F)F)cc1)C(=O)O; X15 = COc1cc(CC[C@H](N[*:1])C(=O)[*:2])cc(Cl)c1Cl; hPhe(3,4-Cl2) = N[C@@H](CCc1ccc(Cl)c(Cl)c1)C(=O)O; NMeAla(cPent) = CN[C@@H](CC1CCCC1)C(=O)O; X84 = O=C(CN(CCc1ccncc1)[*:1])[*:2]; NMeCha = CN[C@@H](CC1CCCCC1)C(=O)O; NMeChg = CN[C@H](C(=O)O)C1CCCCC1; NMeI = CC[C@H](C)[C@H](NC)C(=O)O; NMeD = CN[C@@H](CC(=O)O)C(=O)O; NMeL = CN[C@@H](CC(C)C)C(=O)O; NMeV = CN[C@H](C(=O)O)C(C)C; d(β3hA) = C[C@@H](N)CC(=O)O; Pip = O=C(O)[C@@H]1CCCCN1; NMeA = CN[C@@H](C)C(=O)O; Piperidide = C1CCN(*)CC1; Pyrrolidide = C1CCN(*)C1; Ac5c = NC1(C(=O)O)CCCC1; Aze = O=C(O)[C@@H]1CCN1; Sar = CNCC(=O)O
Assign 1 to entries whose pIC50 meets or exceeds 7; assign -1 to the rest.

Past entries and their recorded results:
>  <Compound>
CC[C@H](C)[C@@H]1NC(=O)[C@H](CC(C)C)N(C)C(=O)C[C@@H](C(=O)N2CCCCC2)N(C)C(=O)[C@H](C2CCCCC2)N(C)C(=O)C2(CCCC2)NC(=O)[C@@H](C)NC(=O)[C@H](CCc2ccc(C(F)(F)F)c(Cl)c2)NC(=O)CN(C)C(=O)[C@H](CC2CCCCC2)N(C)C(=O)CN(C)C(=O)CN(C)C1=O [Compound 277] ([NMeL]I[Sar][Sar][NMeCha][Sar][hPhe(3-Cl-4-CF3)][dA][Ac5c][NMeChg][NMeD]-Piperidide; lactam N-11)

>  <Class>
1

$$$$
>  <Compound>
CC[C@H](C)[C@@H]1NC(=O)[C@H](C)N(C)C(=O)C[C@@H](C(=O)N2CCCCC2)N(C)C(=O)[C@H](C2CCCCC2)N(C)C(=O)C2(CCCC2)NC(=O)[C@@H]2CCCN2C(=O)[C@H](CCc2cc(Cl)c(Cl)c(OC)c2)NC(=O)CN(C)C(=O)[C@H](CC2CCCCC2)N(C)C(=O)CN(C)C(=O)CN(C)C1=O [Compound 2081] ([NMeA]I[Sar][Sar][NMeCha][Sar][X15]P[Ac5c][NMeChg][NMeD]-Piperidide; lactam N-11)

>  <Class>
1

$$$$
>  <Compound>
CC[C@H](C)[C@@H]1NC(=O)[C@H](CC(C)C)N(C)C(=O)C[C@@H](C(=O)N2CCCCC2)N(C)C(=O)[C@H](C2CCCCC2)N(C)C(=O)C2(CCCC2)NC(=O)CN(CCc2ccncc2)C(=O)[C@H](CCc2ccc(C(F)(F)F)c(Cl)c2)NC(=O)CN(C)C(=O)[C@H](CC2CCCCC2)N(C)C(=O)CN(C)C(=O)CN(C)C1=O [Compound 2029] ([NMeL]I[Sar][Sar][NMeCha][Sar][hPhe(3-Cl-4-CF3)][X84][Ac5c][NMeChg][NMeD]-Piperidide; lactam N-11)

>  <Class>
1

$$$$
>  <Compound>
CC[C@H](C)[C@@H]1NC(=O)[C@H](CC2CCCC2)N(C)C(=O)C[C@@H](C(=O)N2CCCC2)N(C)C(=O)[C@H]([C@@H](C)CC)N(C)C(=O)C2(CCCC2)NC(=O)[C@@H]2CCCN2C(=O)[C@H](CCc2ccc(C(F)(F)F)c(Cl)c2)NC(=O)CN(C)C(=O)[C@H](Cc2ccc(C(F)(F)F)cc2)N(C)C(=O)[C@@H]2CCN2C(=O)[C@H](C)N(C)C1=O [Compound 1183] ([NMeAla(cPent)]I[NMeA][Aze][NMePhe(4-CF3)][Sar][hPhe(3-Cl-4-CF3)]P[Ac5c][NMeI][NMeD]-Pyrrolidide; lactam N-11)

>  <Class>
1

$$$$
>  <Compound>
CC[C@H](C)[C@@H]1NC(=O)[C@H](CC(C)C)N(C)C(=O)C[C@@H](C)NC(=O)[C@H](C(C)C)N(C)C(=O)C2(CCCC2)NC(=O)[C@@H]2CCCN2C(=O)[C@H](CCc2ccc(C(F)(F)F)c(Cl)c2)NC(=O)CN(C)C(=O)[C@H](CC2CCCCC2)N(C)C(=O)[C@@H]2CCN2C(=O)[C@@H]2CCCN2C1=O [Compound 1082] (cyclo([Ac5c][NMeV][d(β3hA)][NMeL]IP[Aze][NMeCha][Sar][hPhe(3-Cl-4-CF3)]P))

>  <Class>
-1

$$$$

Would you kindly look at the next entry?
Does CC[C@H](C)[C@@H]1NC(=O)[C@H](CC(C)C)N(C)C(=O)C[C@@H](C(=O)N2CCCCC2)N(C)C(=O)[C@H](C(C)C)N(C)C(=O)C2(CCCC2)NC(=O)[C@@H]2CCCN2C(=O)[C@H](CCc2ccc(Cl)c(Cl)c2)NC(=O)CN(C)C(=O)[C@H](CC2CCCCC2)N(C)C(=O)[C@@H]2CCCCN2C(=O)CN(C)C1=O [Compound 324] ([NMeL]I[Sar][Pip][NMeCha][Sar][hPhe(3,4-Cl2)]P[Ac5c][NMeV][NMeD]-Piperidide; lactam N-11) have a reported pIC50 of at least 7?
-1

* * *

Assayed target: Kras and SOS1 (biotin-tagged human Kras loaded with GDP, His-tagged human SOS1) (Homo sapiens, UniProt P01116, G12D)
Construct: made in house; host or cells: E. coli (stated for Kras only)
Experiment summary: Protein-protein interaction inhibition between Kras and SOS1 (KrasGl2D-SOS PPI) using AlphaScreen
Type: binding
Protocol conditions: AlphaScreen; biotin-tagged human Kras loaded with GDP, His-tagged human SOS1; read-out: KRAS G12D-SOS PPI IC50
Non-standard residues stand in square brackets, D forms with d. Residues, ends and D or L forms follow the SMILES beside them. hPhe(3-Cl-4-CF3) = N[C@@H](CCc1ccc(C(F)(F)F)c(Cl)c1)C(=O)O; NMePhe(2-Me) = CN[C@@H](Cc1ccccc1C)C(=O)O; NMeGly(cPent) = CN[C@H](C(=O)O)C1CCCC1; NMeCha = CN[C@@H](CC1CCCCC1)C(=O)O; NMeL = CN[C@@H](CC(C)C)C(=O)O; NMeV = CN[C@H](C(=O)O)C(C)C; d(β3hA) = C[C@@H](N)CC(=O)O; NMeA = CN[C@@H](C)C(=O)O; Ac5c = NC1(C(=O)O)CCCC1; Ac4c = NC1(C(=O)O)CCC1; Sar = CNCC(=O)O
Measure: IC50 (nM)
Give just the number in nM; leave the unit off.

>  <Compound>
CC[C@H](C)[C@@H]1NC(=O)[C@H](CC(C)C)N(C)C(=O)C[C@@H](C)NC(=O)[C@H](C(C)C)N(C)C(=O)C2(CCCC2)NC(=O)[C@@H]2CCCN2C(=O)[C@H](CCc2ccc(C(F)(F)F)c(Cl)c2)NC(=O)CN(C)C(=O)[C@H](Cc2ccccc2C)N(C)C(=O)CN(C)C(=O)CN(C)C1=O [Compound 1614] (cyclo([Ac5c][NMeV][d(β3hA)][NMeL]I[Sar][Sar][NMePhe(2-Me)][Sar][hPhe(3-Cl-4-CF3)]P))

>  <Recorded value>
51

$$$$

# input compound: CC[C@H](C)[C@@H]1NC(=O)[C@H](C)N(C)C(=O)C[C@@H](C)NC(=O)[C@H](C2CCCC2)N(C)C(=O)C2(CCC2)NC(=O)[C@@H]2CCCN2C(=O)[C@H](CCc2ccc(C(F)(F)F)c(Cl)c2)NC(=O)CN(C)C(=O)[C@H](CC2CCCCC2)N(C)C(=O)CN(C)C(=O)CN(C)C1=O [Compound 1506] (cyclo([Ac4c][NMeGly(cPent)][d(β3hA)][NMeA]I[Sar][Sar][NMeCha][Sar][hPhe(3-Cl-4-CF3)]P)) ; wanted: its IC50
2.9
